- Test Target: ABCA4 P1380L (Homo sapiens, UniProt P78363, P1380L)
- Construct: expressed in transfected cells
- Sequence (P78363 whole entry P1380L): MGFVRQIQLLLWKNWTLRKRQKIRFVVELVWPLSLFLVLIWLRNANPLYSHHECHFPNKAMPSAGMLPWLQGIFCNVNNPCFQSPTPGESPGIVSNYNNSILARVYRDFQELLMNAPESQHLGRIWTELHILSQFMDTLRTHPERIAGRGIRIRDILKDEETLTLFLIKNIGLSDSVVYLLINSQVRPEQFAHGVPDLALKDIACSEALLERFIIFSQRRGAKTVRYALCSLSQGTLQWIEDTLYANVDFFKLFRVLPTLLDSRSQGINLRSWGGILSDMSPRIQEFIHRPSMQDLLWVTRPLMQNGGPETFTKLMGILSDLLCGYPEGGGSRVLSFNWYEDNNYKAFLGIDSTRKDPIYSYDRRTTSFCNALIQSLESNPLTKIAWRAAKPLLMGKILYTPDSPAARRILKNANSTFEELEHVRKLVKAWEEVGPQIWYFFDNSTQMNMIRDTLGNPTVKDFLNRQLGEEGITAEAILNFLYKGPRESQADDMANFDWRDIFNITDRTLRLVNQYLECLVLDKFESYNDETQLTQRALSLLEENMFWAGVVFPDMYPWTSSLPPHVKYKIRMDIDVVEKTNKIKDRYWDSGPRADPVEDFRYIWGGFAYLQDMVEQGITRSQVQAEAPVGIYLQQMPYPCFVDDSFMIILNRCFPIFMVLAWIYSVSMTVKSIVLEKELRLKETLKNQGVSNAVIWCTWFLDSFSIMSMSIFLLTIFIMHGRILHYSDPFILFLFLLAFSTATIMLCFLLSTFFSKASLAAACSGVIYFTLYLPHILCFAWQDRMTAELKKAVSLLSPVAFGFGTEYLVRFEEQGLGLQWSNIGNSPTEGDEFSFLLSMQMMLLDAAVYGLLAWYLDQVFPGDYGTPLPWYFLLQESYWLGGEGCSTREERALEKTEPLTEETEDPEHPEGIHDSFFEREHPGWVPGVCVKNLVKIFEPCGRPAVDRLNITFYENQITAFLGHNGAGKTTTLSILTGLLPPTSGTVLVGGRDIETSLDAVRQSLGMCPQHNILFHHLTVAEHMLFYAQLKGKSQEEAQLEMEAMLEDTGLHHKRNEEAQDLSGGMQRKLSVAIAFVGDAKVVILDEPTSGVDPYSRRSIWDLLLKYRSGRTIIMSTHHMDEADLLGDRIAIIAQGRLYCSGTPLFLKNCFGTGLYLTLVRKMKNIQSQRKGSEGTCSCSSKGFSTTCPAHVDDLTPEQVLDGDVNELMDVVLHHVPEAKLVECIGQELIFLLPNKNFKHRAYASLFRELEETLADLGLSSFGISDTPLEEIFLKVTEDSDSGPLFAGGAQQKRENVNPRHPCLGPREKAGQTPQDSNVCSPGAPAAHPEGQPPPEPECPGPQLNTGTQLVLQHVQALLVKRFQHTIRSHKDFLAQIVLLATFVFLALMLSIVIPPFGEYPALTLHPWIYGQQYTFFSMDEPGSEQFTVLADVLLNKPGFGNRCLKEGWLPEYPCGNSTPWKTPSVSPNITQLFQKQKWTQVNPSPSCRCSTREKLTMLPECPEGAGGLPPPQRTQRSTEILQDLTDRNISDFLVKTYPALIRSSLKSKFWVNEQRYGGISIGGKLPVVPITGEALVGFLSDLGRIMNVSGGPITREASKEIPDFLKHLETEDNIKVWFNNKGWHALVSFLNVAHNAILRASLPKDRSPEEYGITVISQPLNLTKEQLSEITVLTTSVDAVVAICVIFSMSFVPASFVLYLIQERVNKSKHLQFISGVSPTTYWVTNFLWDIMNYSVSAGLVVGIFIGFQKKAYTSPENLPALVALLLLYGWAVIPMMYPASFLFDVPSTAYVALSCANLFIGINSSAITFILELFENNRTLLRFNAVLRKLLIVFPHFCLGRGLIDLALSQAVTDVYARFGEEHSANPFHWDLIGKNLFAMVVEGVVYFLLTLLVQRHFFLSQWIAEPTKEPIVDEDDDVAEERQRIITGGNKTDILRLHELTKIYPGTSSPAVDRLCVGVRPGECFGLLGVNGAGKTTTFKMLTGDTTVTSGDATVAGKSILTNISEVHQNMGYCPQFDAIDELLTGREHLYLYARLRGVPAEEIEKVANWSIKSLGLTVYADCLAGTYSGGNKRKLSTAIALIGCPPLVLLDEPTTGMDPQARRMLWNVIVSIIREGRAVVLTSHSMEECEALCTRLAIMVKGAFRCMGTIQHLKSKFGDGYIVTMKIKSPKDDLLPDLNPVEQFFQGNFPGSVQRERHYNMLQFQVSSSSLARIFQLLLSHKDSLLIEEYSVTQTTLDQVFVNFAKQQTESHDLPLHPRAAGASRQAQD
- Assay Protocol: A4 correction dose-response assay: ABCA4 P1380L HiBit protein expression
- Assay type: cell-based
- Condition Context: HEK-293 cells stably expressing HiBit-tagged ABCA4 P1380L; 24 h treatment; top concentration 30 μM; read-out: ABCA4 P1380L EC50, Emax
- Protocol: Exemplary compounds were evaluated in an A4 correction dose-response assay. […] Dose response curves include eleven doses with the top final concentration at 30 μM in 0.3% DMSO. […] The plates are rotated at room temperature for 2 minutes and incubated for 1 hour at 25° C. before luminescent signal is acquired using an EnVision Multimode Plate Reader (PerkinElmer).
Quick list: EC50 per entry.

Previously resolved entries follow.
{"Compound Structure String": "Cc1cc(C)c(Oc2nc(-c3cncc(Cl)c3)ccc2S(N)(=O)=O)c(C)c1", "Test Readout": "EC50", "Result": "10 to 25 µM"}
{"Compound Structure String": "Cc1cc(Oc2nc(-c3cncc(C#N)c3)ccc2NS(C)(=O)=O)c(C)nc1C1CC1", "Test Readout": "EC50", "Result": "1 to 10 µM"}
{"Compound Structure String": "Cc1cc(C2CC2)nc(C)c1Oc1nc(-c2cncc(C#N)c2)ccc1NS(=O)(=O)C1CC1", "Test Readout": "EC50", "Result": "< 1 µM"}
{"Compound Structure String": "Cc1cc(C(F)F)nc(C)c1Oc1nc(-c2cncc(Cl)c2)ccc1NS(C)(=O)=O", "Test Readout": "EC50", "Result": "< 1 µM"}
{"Compound Structure String": "COC(=O)c1cncc(-c2ccc(NS(C)(=O)=O)c(Oc3cc(C)n(C)n3)n2)c1", "Test Readout": "EC50", "Result": "< 25 µM"}

Name the reported EC50 value associated with the compound "CNS(=O)(=O)c1ccc(-c2cncc(C#N)c2)nc1Oc1nc(C2CC2)sc1C" > 25 µM

Name the reported EC50 value associated with the compound "Cc1cc(C(F)(F)F)nc(C2CC2)c1Oc1nc(-c2cncc(C#N)c2)ccc1N(C)S(=O)(=O)C1CC1" > 25 µM

Name the reported EC50 value associated with the compound "Cc1cc(C)c(Oc2nc(-c3cncc(Cl)c3)ccc2S(=O)(=O)N[C@@H](c2ccccc2)C(F)(F)F)c(C)c1" 1 to 10 µM

###

- Test Target: ABCC6 WT (Homo sapiens, UniProt O95255)
- Sequence (O95255 whole entry): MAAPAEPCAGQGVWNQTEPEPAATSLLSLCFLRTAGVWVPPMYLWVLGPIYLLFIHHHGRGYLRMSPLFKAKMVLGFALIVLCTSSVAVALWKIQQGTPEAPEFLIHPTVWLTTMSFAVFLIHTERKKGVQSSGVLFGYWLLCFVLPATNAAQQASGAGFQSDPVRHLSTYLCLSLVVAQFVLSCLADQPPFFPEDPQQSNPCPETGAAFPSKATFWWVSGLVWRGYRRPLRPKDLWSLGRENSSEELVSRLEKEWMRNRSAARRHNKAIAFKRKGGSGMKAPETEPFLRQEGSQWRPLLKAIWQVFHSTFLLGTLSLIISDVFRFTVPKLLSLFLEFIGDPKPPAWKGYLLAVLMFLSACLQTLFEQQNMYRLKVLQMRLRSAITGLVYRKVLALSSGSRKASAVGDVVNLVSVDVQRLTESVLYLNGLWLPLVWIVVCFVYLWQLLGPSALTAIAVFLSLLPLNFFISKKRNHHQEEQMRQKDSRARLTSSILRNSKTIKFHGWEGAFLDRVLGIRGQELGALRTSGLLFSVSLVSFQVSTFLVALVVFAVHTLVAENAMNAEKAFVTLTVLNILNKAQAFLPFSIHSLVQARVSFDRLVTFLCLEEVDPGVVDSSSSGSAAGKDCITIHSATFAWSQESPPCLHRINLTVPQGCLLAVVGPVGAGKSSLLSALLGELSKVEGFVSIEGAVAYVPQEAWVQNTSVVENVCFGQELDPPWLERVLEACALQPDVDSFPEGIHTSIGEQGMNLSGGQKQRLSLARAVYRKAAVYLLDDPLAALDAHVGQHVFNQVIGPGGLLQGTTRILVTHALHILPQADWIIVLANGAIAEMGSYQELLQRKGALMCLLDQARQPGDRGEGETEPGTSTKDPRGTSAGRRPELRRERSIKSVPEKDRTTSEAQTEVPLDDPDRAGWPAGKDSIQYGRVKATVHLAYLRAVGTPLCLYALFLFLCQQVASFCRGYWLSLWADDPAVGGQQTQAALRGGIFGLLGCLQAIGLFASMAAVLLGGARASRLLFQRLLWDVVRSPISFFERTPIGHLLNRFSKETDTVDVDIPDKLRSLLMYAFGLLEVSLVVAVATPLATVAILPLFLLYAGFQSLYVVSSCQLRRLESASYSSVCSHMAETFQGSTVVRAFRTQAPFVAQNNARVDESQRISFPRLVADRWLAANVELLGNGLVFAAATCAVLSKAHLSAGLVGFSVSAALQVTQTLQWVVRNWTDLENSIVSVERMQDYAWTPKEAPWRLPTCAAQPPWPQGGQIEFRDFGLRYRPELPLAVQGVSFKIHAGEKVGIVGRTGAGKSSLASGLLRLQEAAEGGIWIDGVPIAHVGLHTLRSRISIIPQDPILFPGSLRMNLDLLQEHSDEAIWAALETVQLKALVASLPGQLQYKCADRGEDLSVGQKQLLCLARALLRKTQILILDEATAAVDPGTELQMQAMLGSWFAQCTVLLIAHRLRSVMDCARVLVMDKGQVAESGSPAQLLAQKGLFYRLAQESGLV
- Assay Protocol: ABCC6 WT assay: HiBit protein expression
- Condition Context: HEK-293 cells transiently expressing HiBit-tagged ABCC6 WT; 24 h treatment; top concentration 20 μM; read-out: ABCC6 WT EC50, Emax
Test Readout: EC50

{"Compound": "Cc1cc(C)c(Oc2nc(-n3cc(C#N)cn3)ccc2NS(C)(=O)=O)c(C)c1", "EC50": "< 1000 nM"}

Name the reported EC50 value associated with the compound "Cc1nc(C(F)(F)F)nc(C)c1Oc1nc(-c2cncc(C#N)c2)ccc1NS(C)(=O)=O" < 1000 nM

Name the reported EC50 value associated with the compound "CNS(=O)(=O)c1ccc(N2CCN(C(=O)C3CC3)CC2)nc1Oc1c(C)cc(C)cc1C" 1000 to 10000 nM

Name the reported EC50 value associated with the compound "COc1nc(C)cc(C)c1Oc1nc(-c2cncc(C#N)c2)ccc1NS(C)(=O)=O" < 1000 nM

Name the reported EC50 value associated with the compound "Cc1cc(C)c(Oc2nc(-c3cncc(Cl)c3)ccc2NS(C)(=O)=O)c(C)n1" < 1000 nM

Name the reported EC50 value associated with the compound "Cc1cc(C(F)(F)F)nc(C2CC2)c1Oc1nc(-c2cncc(C#N)c2)ccc1N(C)S(=O)(=O)C1CC1" < 1000 nM

###

Quick list: EC50 per entry.
- Test Target: ABCD2 WT (Homo sapiens)
- Sequence (Q9UBJ2 whole entry): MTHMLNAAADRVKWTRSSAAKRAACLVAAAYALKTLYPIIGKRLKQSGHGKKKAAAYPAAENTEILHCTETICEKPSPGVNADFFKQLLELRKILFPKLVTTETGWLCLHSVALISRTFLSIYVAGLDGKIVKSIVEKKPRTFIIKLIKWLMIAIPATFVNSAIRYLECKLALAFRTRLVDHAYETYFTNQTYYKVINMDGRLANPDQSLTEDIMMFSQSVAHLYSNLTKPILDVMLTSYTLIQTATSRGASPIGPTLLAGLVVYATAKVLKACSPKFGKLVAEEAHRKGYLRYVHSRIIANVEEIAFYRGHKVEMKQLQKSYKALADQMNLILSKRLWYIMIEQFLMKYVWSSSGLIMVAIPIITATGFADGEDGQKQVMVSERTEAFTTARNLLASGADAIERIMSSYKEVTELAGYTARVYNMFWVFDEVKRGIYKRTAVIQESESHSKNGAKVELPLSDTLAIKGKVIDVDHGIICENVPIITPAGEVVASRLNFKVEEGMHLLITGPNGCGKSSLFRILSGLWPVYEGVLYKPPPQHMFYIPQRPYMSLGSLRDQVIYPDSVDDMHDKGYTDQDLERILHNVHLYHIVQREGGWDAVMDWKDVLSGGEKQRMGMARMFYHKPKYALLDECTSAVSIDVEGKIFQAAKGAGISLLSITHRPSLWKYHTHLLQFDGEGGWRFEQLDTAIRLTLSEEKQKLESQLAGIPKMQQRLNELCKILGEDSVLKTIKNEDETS
- Assay Protocol: D2 correction dose-response assay: ABCD2 WT HiBit protein expression
- Condition Context: HEK-293/ABCD2 WT cells, 24 hours treatment, HiBit luminescence; class combines EC50 and Mean MaxAct (fold); read-out: ABCD2 WT EC50, Emax

Previously resolved entries follow.
{"Molecule": "Cc1cc(C2CC2)nc(C)c1Oc1nc(-n2cc(C#N)cn2)ccc1NS(C)(=O)=O [Compound I-256]", "EC50": "1 to 10 µM"}
{"Molecule": "Cc1nc(C(F)(F)F)nc(C)c1Oc1nc(-c2cncc(C#N)c2)ccc1NS(C)(=O)=O [Compound I-200]", "EC50": "< 1 µM"}
{"Molecule": "Cc1cc(N2CC(F)(F)C2)nc(C)c1Oc1nc(-c2cncc(C#N)c2)ccc1NS(C)(=O)=O [Compound I-180]", "EC50": "> 25 µM"}
{"Molecule": "Cc1cc(C)c(Oc2nc(-c3cncc(Cl)c3)ccc2N2CCCS2(=O)=O)c(C)c1 [Compound I-67]", "EC50": "1 to 10 µM"}
{"Molecule": "Cc1cc(C2CC2)c(Oc2nc(-c3cncc(C#N)c3)ccc2NS(C)(=O)=O)c(C)n1 [Compound I-171]", "EC50": "< 1 µM"}
{"Molecule": "COC1CC(S(=O)(=O)Nc2ccc(-c3cncc(Cl)c3)nc2Oc2c(C)cc(C)cc2C)C1 (stereo not drawn) [Compound I-51]", "EC50": "> 25 µM"}

Name the reported EC50 value associated with the molecule Cc1cc(C)c(Oc2nc(-c3cncc(C#N)c3)ccc2NS(=O)(=O)C2CCC2)c(C)n1 [Compound I-243] 10 to 25 µM

Name the reported EC50 value associated with the molecule Cc1cc(C)c(Oc2nc(-c3cncc(Cl)c3)ccc2S(C)(=N)=O)c(C)c1 (stereo not drawn) [Compound I-103] 1 to 10 µM

Name the reported EC50 value associated with the molecule Cc1cc(C)c(Oc2nc(-c3cnn(C)c3)ccc2NS(C)(=O)=O)c(C)c1 [Compound I-14] 1 to 10 µM

###

- Test Target: ABCA4 P1380L (Homo sapiens, UniProt P78363, P1380L)
- Construct: expressed in transfected cells
- Assay Protocol: A4 correction dose-response assay: ABCA4 P1380L HiBit protein expression
- Assay type: cell-based
- Condition Context: HEK-293 cells stably expressing HiBit-tagged ABCA4 P1380L; 24 h treatment; top concentration 30 μM; read-out: ABCA4 P1380L EC50, Emax
Quick list: EC50 per entry.

Previously resolved entries follow.
{"Compound": "Cc1nc(C2CC2)c(C(F)F)cc1Oc1nc(-c2cncc(C#N)c2)ccc1NS(C)(=O)=O", "EC50": "> 25 µM"}
{"Compound": "Cc1nc(C(F)(F)F)nc(C2CC2)c1Oc1nc(-c2cncc(C#N)c2)ccc1S(=O)(=O)Nc1cnn(C)c1", "EC50": "> 25 µM"}
{"Compound": "Cc1cc(C)c(Oc2nc(-n3cnc(C)c3)ccc2NS(C)(=O)=O)c(C)c1", "EC50": "> 25 µM"}
{"Compound": "Cc1cc(C)c(Oc2nc(N3CC4(CCN(C(=O)C5CC5)C4)C3)ccc2NS(C)(=O)=O)c(C)c1", "EC50": "> 25 µM"}
{"Compound": "Cc1cc(C)c(Oc2nc(-c3ccnc(C#N)c3)ccc2NS(C)(=O)=O)c(C)n1", "EC50": "< 1 µM"}

Name the reported EC50 value associated with the compound "Cc1cc(C2CCC2)nc(C)c1Oc1nc(-c2cncc(C#N)c2)ccc1NS(C)(=O)=O" < 1 µM

Name the reported EC50 value associated with the compound "Cc1cc(C)[n+]([O-])c(C)c1Oc1nc(-c2cncc(C#N)c2)ccc1NS(C)(=O)=O" 1 to 10 µM

Name the reported EC50 value associated with the compound Cc1cc(C)c(Oc2nc(N3CCC(C#N)C3)ccc2NS(C)(=O)=O)c(C)c1 (single isomer, unassigned) [Compound I-262] 1 to 10 µM

###

Quick list: EC50 per entry.
- Test Target: ABCC6 WT (Homo sapiens)
- Assay Protocol: ABCC6 WT assay: HiBit protein expression
- Condition Context: HEK-293 cells transiently expressing HiBit-tagged ABCC6 WT; 24 h treatment; top concentration 20 μM; read-out: ABCC6 WT EC50, Emax

Previously resolved entries follow.
{"Compound": "Cc1nc(OC2CC2)c(C(F)(F)F)cc1Oc1nc(-c2cncc(C#N)c2)ccc1NS(C)(=O)=O", "Result": "< 1000 nM"}
{"Compound": "Cc1cc(C)c(Oc2nc(-c3cnc(C#N)c(Cl)c3)ccc2NS(C)(=O)=O)c(C)c1", "Result": "< 1000 nM"}
{"Compound": "Cc1cc(C)c(Oc2nc(N3CCN(S(=O)(=O)C4CC4)CC3)ccc2NS(C)(=O)=O)c(C)c1", "Result": "1000 to 10000 nM"}
{"Compound": "Cc1cc(C(F)(F)F)nc(C2CC2)c1Oc1nc(-c2cncc(Cl)c2)ccc1N(C)S(C)(=O)=O", "Result": "1000 to 10000 nM"}
{"Compound": "Cc1cc(C)c(Oc2nc(-c3cncc(Cl)c3)ncc2S(N)(=O)=O)c(C)c1Cl", "Result": "< 25000 nM"}
{"Compound": "Cc1cc(Oc2nc(-c3cncc(C#N)c3)ccc2NS(C)(=O)=O)nn1C", "Result": "1000 to 10000 nM"}
{"Compound": "Cc1cc(C)c(Oc2nc(-c3ccnc(C#N)c3)ccc2NS(C)(=O)=O)c(C)n1", "Result": "< 1000 nM"}
{"Compound": "Cc1cc(C(F)(F)F)nc(C2CC2)c1Oc1nc(-c2cncc(C#N)c2)ccc1S(=O)(=O)N(C)C", "Result": "1000 to 10000 nM"}
{"Compound": "Cc1cc(C)c(Oc2nc(-c3cnc(C#N)c(Cl)c3)ccc2NS(C)(=O)=O)c(C)n1", "Result": "< 1000 nM"}
{"Compound": "Cc1nc(C(F)(F)F)nc(C2CC2)c1Oc1nc(-c2cncc(C#N)c2)ccc1S(=O)(=O)Nc1cccnc1", "Result": "< 1000 nM"}

Name the reported EC50 value associated with the compound "Cc1cc(C(F)F)nc(C)c1Oc1nc(-c2cncc(C#N)c2)ccc1NS(C)(=O)=O" < 1000 nM

Name the reported EC50 value associated with the compound "Cc1cc(C)c(Oc2nc(-c3cncc(Cl)c3)ncc2NS(C)(=O)=O)c(C)n1" < 1000 nM
